System: Δcoa6 cells
assay-name: Growth in liquid non-fermentable medium with increasing DSF concentrations
Assay type: cell-based
test-parameters: Saccharomyces cerevisiae, 40 h, read-out: toxic dose (IC50)
pIC50: −log10 of the molar value.
readout-type: pIC50

INSERT INTO assay_data (molecule, observed_value) VALUES
  ('CCN(CC)C(=S)SSC(=S)N(CC)CC [DSF]', 5.51);
